- Test system: FXR:RXRa (NR concentration 270 nM, RXRa partner concentration 90 nM)
- ASSAY: PBM binding z-score (relative to random genomic background probes); higher = stronger binding; sequences stand for … in GC…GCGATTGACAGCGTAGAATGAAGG
MEASURED_ENDPOINT: PBM binding z-score
Form: value (number only, do not type unit).

As a guide, the following entries are already answered.
| QUERY_SEQUENCE | PBM binding z-score |
| --- | --- |
| TCTTGTAGTTCAAAGGTTAAGAAAGCCGAAGCCT | 4.09 |
| CCTTACGGGTCACTGACAGGTTATACCATTTGGA | 4.86 |

Inquiry: Consider the sequence GGTTGTAGATCAAGGTTAAGAAAGACTAAGCTAA and give its measured PBM binding z-score.
Reply text: 0.73

Inquiry: Consider the sequence CGTCCAAGGTCATAGGAGGACAGTGAAGACAGAT and give its measured PBM binding z-score.
Reply text: 7.15

Inquiry: Consider the sequence CCGACTGGGGCAAGGTTACCAAAACGCACAGCCA and give its measured PBM binding z-score.
Reply text: 0.221

Inquiry: Consider the sequence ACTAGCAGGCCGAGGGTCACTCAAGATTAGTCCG and give its measured PBM binding z-score.
Reply text: 0.88

###

- Test system: PPARg:RXRa DBDmut IVT, anti-RXR (DBD mutation: RXRa K156A/R161A, NR concentration 270 nM, RXRa partner concentration 90 nM)
- ASSAY: PBM binding z-score (relative to random genomic background probes); higher = stronger binding; sequences stand for … in GC…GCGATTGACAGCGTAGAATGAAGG
Label scheme for PBM binding z-score: bin 0: < 1; bin 1: ≥ 1 and < 6; bin 2: ≥ 6

Solved cases below.
| QUERY_SEQUENCE | CLASS |
| --- | --- |
| ATATGTAGGTTATCGGGTCATGCAGTTTGCGCAT | bin 2 |
| TCTTGTAGATCGAGCAGGTTAAGAAAGCCTGAGT | bin 1 |
| CGAACGAGGGCCTGAGTTGATAGCAAATGCCGAT | bin 0 |
| GCTATTAGTTCAAAGGGCAACCGAATGATTCTCG | bin 0 |
| TAGTCTAGGTCATGCGGGCCAGTATAGTGTCGGC | bin 1 |

Inquiry: Sort into band: AGATGTAGGTTACATCCGGGTCATTCAGGCTATG
Reply text: bin 2

Inquiry: Sort into band: TCTCGGGGGACACGAAAGGTCAGAGCTCGACATC
Reply text: bin 1

Inquiry: Sort into band: TATACAGGGTCAAAGGCCAGGGTACGAATGTCGA
Reply text: bin 1

Inquiry: Sort into band: CAAACTAGGTCAAAGCTCAAAGTCGAGCCAACCA
Reply text: bin 2

Inquiry: Sort into band: ACTAGCAGGCCAAGTTAGGGTCACTCAAACAAAG
Reply text: bin 0

Inquiry: Sort into band: CCAGACAGGTGAAAGCTAACTCAGTCTGGTACGC
Reply text: bin 1

Inquiry: Sort into band: TCATATGGGTAAATGCTAGGTGAAAGTCCGATCT
Reply text: bin 1

###

The following sequences are shown together with reported PBM binding z-score values.
- System: PXR homodimer (NR concentration 270 nM)
- ASSAY: PBM binding z-score (relative to random genomic background probes); higher = stronger binding; sequences stand for … in GC…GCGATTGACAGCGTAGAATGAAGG
Form: value (number only, do not type unit).

As a guide, the following entries are already answered.
| QUERY_SEQUENCE | MEASURED_TARGET | PBM binding z-score |
| --- | --- | --- |
| GGAACGAGGGTAAAGTTGATAGCATCTGTCGACG | PXR homodimer (NR concentration 270 nM) | -0.214 |
| GCCAGCAGGCCATTTGGGTCACTCAATGACGGGC | PXR homodimer (NR concentration 270 nM) | 0.123 |
| TTACCAAGGTGAGGTGAGGTCGTTGATCCAACTC | PXR homodimer (NR concentration 270 nM) | 0.773 |
| CAAACTAGGTCAAGGTCAATGTCGGTTTGTGCCA | PXR homodimer (NR concentration 270 nM) | 2.16 |
| GCTAGCAGGCCATTTGGGTGACTCAATGACGGGC | PXR homodimer (NR concentration 270 nM) | -0.793 |

We now examine a further sequence.
Inquiry: Consider the sequence CTACCAAAGTGAACAAGGTCGTTGATTACTATTC and give its measured PBM binding z-score.
Reply text: 1.48

###

- Tested on: THRa homodimer (NR concentration 90 nM)
- ASSAY: PBM binding z-score (relative to random genomic background probes); higher = stronger binding; sequences stand for … in GC…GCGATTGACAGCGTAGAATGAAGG
Label scheme for PBM binding z-score: low = under 0.1, moderate = from 0.1 up to 1, high = 1 and over

| QUERY_SEQUENCE | MEASURED_TARGET | CLASS |
| --- | --- | --- |
| TCGAGTAGTTTAGGGGCATTCAGAATGGCGTCGA | THRa homodimer (NR concentration 90 nM) | moderate |

Inquiry: Sort into band: GCTCGCAGGACAAGGTCAGAGCTTTGTCCGTAGA
Reply text: high

Inquiry: Sort into band: CATACAGGGTCAGCTAGGCCAGGGTAGGGACGGC
Reply text: high

Inquiry: Sort into band: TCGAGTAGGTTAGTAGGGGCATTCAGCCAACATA
Reply text: moderate

Inquiry: Sort into band: CGTTAAAGTTCAAGGTAACGTAACAGAAAGCAGC
Reply text: high

###

The following sequences are shown together with reported PBM binding z-score values.
- Tested on: PPARg:RXRa (NR concentration 180 nM, RXRa partner concentration 90 nM)
- ASSAY: PBM binding z-score (relative to random genomic background probes); higher = stronger binding; sequences stand for … in GC…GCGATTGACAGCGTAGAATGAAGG

As a guide, the following entries are already answered.
| QUERY_SEQUENCE | PBM binding z-score |
| --- | --- |
| TAGCGTAGGTCATTGGGCCAGTATAGTACGCATC | 3.75 |
| GATACAGGGTCAAGGACAGAGTACGCGTATTGAT | 5.7 |
| TCAGACAGCTGAAGGTAACTCAGGTACGCAGTCG | 0.398 |
| CCGACTGGGGCAAAAGTTACCATACTCAGTACGA | 5.28 |
| CGTCCAAGGTCAGCAGGTCAGTGACAGCGACGTG | 3.93 |
| CCTATTAGTTGGCCATAAGGGCAACCGAAGCTCG | 0.332 |
| TGTCAAAGTTCAAAGGGAACGTAAGTATCCACAC | 8.1 |
| GCTAGTTGGTCAGTAACAGGTCACACACCGGTCG | 0.82 |
| GATACAGGGTCAGCTAGAGGCCAGCGTATGGAAA | 3.18 |
| CCTGCTAGGTCAATGGCCAGCTAAAGCAGCTCGC | 1.84 |

Inquiry: Consider the sequence CCTAGCAGGCCAGAGTCACTCAAGCATTTCGCTT and give its measured PBM binding z-score.
Reply text: -0.117

Inquiry: Consider the sequence GTTACAGGGTCAGCTAGAGGCCAGAGTATGGAAA and give its measured PBM binding z-score.
Reply text: 3.35

###

- Test system: VDR homodimer (NR concentration 270 nM)
- ASSAY: PBM binding z-score (relative to random genomic background probes); higher = stronger binding; sequences stand for … in GC…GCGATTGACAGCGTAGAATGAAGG
Would you mind labelling by PBM binding z-score? At or over -0.05 is 1.0, under is 0.0.

Solved cases below.
| QUERY_SEQUENCE | CLASS |
| --- | --- |
| TAGCCTAGGTCATTGGGGCAGTATAGTACGCATC | 1.0 |
| CGAACGTGGGCATGAGTTGATAGCAAATGCCGAT | 0.0 |
| TCTAGTTGGTAACGGAGGTCACACACGACGGGTA | 1.0 |
| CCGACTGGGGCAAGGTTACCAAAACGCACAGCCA | 0.0 |

With those in mind, consider the next sequence.
Inquiry: Determine whether this sequence has PBM binding z-score no lower than -0.05: TCGAGTAGGTTAGTCGGGGCATTCAACCAACATA
Reply text: 1.0

###

The following sequences are shown together with reported PBM binding z-score values.
- System: PPARg:RXRa 30nM:10nM, anti-RXR (NR concentration 30 nM, RXRa partner concentration 10 nM)
- ASSAY: PBM binding z-score (relative to random genomic background probes); higher = stronger binding; sequences stand for … in GC…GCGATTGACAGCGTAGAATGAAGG
Form: value (number only, do not type unit).

As a guide, the following entries are already answered.
| QUERY_SEQUENCE | PBM binding z-score |
| --- | --- |
| CCTCGGAGGACAACAGGAGGTCAGATCTGCCAGA | -0.484 |
| CGAACTAGGTCAGTACAGGACAGTGAAGGATGAT | 1.71 |
| GCTAGTTGCTCAGTAAAAGGTCACACACCGGTCG | 1.06 |
| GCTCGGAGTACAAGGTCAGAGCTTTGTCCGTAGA | -0.171 |
| CCTAGCACGCCAATCTGGGTCACTCAAGGCTTGA | -0.246 |
| GCTAGCAGGCCATTAGGGTCACTCAATGACGGGC | -0.267 |
| TCTAGTTGGTCAGGGAGGTCACACACGACGGGTA | 3.27 |
| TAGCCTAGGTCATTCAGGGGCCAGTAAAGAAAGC | 0.576 |
| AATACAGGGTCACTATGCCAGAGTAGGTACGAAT | 2.05 |
| CGAACTAGGTCAAGGACAGTGGATCTCCGCACGC | 3.35 |

Inquiry: Consider the sequence AGCATGAGGTTAAGATCAGGGAAACAGAATACAT and give its measured PBM binding z-score.
Reply text: 0.357

Inquiry: Consider the sequence CGAACTAGGTCAAGGACCGTGAATCTCCGCACGC and give its measured PBM binding z-score.
Reply text: 4.37

Inquiry: Consider the sequence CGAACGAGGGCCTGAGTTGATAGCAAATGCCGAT and give its measured PBM binding z-score.
Reply text: -0.305

Inquiry: Consider the sequence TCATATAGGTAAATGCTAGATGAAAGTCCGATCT and give its measured PBM binding z-score.
Reply text: 3.6

Inquiry: Consider the sequence AGTCAAAGTTCATCTAGGTAACGTAAGATATGCT and give its measured PBM binding z-score.
Reply text: 3.3

Inquiry: Consider the sequence ACTAGCAGGCCGAGTTTGGGTCACTCAAACAAAG and give its measured PBM binding z-score.
Reply text: -0.644

Inquiry: Consider the sequence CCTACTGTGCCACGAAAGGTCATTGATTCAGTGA and give its measured PBM binding z-score.
Reply text: 2

Inquiry: Consider the sequence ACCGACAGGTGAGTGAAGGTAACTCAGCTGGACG and give its measured PBM binding z-score.
Reply text: -0.38
